Cited source for all entries: paper PMC9144278

Test: Pharmacokinetic study after oral administration
Conditions: male, Wistar albino, rat, in vivo, po, 20 mg/kg
PARAMETER MEASURED: AUC(0-inf) (ng·h/mL)
Output spec: scalar in ng·h/mL, unitless text.

get_value(item= O=c1c(O)c(-c2ccc(O)cc2O)oc2cc(O)cc(O)c12 [MH, 2′,3,4′,5,7-pentahydroxyflavone] , readout=AUC(0-inf)) returns 77000

* * *

Assay: Ex vivo drug gut-permeation study, noneverted gut sac technique
Assay type: in vitro ADME, male Wistar rats
Settings: male, Wistar; rat intestine; read-out: apparent permeability coefficient (APC) (converted)
PARAMETER MEASURED: Papp at 90 min
Reply with the number, then its unit.

get_value(item= O=c1c(O)c(-c2ccc(O)cc2O)oc2cc(O)cc(O)c12 [MH, 2′,3,4′,5,7-pentahydroxyflavone] , readout=Papp at 90 min) returns 2.53 ×10⁻⁶ cm/s

* * *

Experiment: Pharmacokinetic study after oral administration
Details: male, Wistar albino, rat, in vivo, po, 20 mg/kg, Cmax, 20 mg/kg MH, n = 6
PARAMETER MEASURED: Cmax (ng/mL)
Output spec: scalar in ng/mL, unitless text.

get_value(item= O=c1c(O)c(-c2ccc(O)cc2O)oc2cc(O)cc(O)c12 [MH, 2′,3,4′,5,7-pentahydroxyflavone] , readout=Cmax) returns 4820

* * *

Assay: Pharmacokinetic study after oral administration
Details: male, Wistar albino, rat, in vivo, po, 20 mg/kg
PARAMETER MEASURED: Tmax
Reply with the number, then its unit.

get_value(item= O=c1c(O)c(-c2ccc(O)cc2O)oc2cc(O)cc(O)c12 [MH, 2′,3,4′,5,7-pentahydroxyflavone] , readout=Tmax) returns 2 h
